target: NA of A/Texas/12/2007 (H3N2 119 V) (Influenza A virus (A/Texas/12/2007(H3N2)), UniProt D1FVK3, I119V); assay: biochemical; format: biochemical
assayMetric: IC50 (nM)
Give the quantity in nM, number only.

*Q* Find the recorded IC50 belonging to CC(=O)N[C@H]1[C@H]([C@H](O)[C@H](O)CO)OC(C(=O)O)=C[C@@H]1N=C(N)N and report it.
*A* 1.56

# credit: paper PMC6604316
